# Substrate: CCCC(=O)Oc1ccc([N+](=O)[O-])cc1
# test.description: purified protein
# Format: biochemical, Erythrobacter longus
# experimental.setup: Tris-HCl pH 9.0 (also pH 7.0), 40 °C, 0.05-4.00 mM substrate
assay.metric: Km (µM)
Hi! Could you send only the number? It should be in µM, unit omitted.

Q. So what does the record say about Km for E53 (Erythrobacter longus; V211A) (protein, full length, 314 residues; N-terminal His6-SUMO tag (pSMT3) removed with Ulp1; E. coli BL21(DE3); monomer) MTDTPFIRPDMKAFLEAIAAMAGPTLAEMTLEEARASYVALHGMADRPARELAVIRNLSCPGPAGDIPLRLYDARESREAGPVITFYHGGGFVIGDLDTHHNLCTEIAALMDLPVVAVDYRLAPEHPFPAAIEDCEAATRWVASSPSELGRTASGVIPIGDSAGGNATIVVSQLLGAKPADVPVVLQVPIFPLASDAVGSASLEAFAEGFALTKASIEFFDTAYKADRADPRGFPILGDHTAAPPTIVATASLDPIRDSGRDYAKALVEAGRDVVYLEMEGVTHSFTNIRAAVPSTQGDLERIIAAMKMMLGTA ?
A. 520

Q. So what does the record say about Km for E53 (Erythrobacter longus; F191Y) (protein, full length, 314 residues; N-terminal His6-SUMO tag (pSMT3) removed with Ulp1; E. coli BL21(DE3); monomer) MTDTPFIRPDMKAFLEAIAAMAGPTLAEMTLEEARASYVALHGMADRPARELAVIRNLSCPGPAGDIPLRLYDARESREAGPVITFYHGGGFVIGDLDTHHNLCTEIAALMDLPVVAVDYRLAPEHPFPAAIEDCEAATRWVASSPSELGRTASGVIPIGDSAGGNATIVVSQLLGAKPADVPVVLQVPIYPLASDAVGSASLEAFAEGFVLTKASIEFFDTAYKADRADPRGFPILGDHTAAPPTIVATASLDPIRDSGRDYAKALVEAGRDVVYLEMEGVTHSFTNIRAAVPSTQGDLERIIAAMKMMLGTA ?
A. 210
